Target: human TLR9 (Homo sapiens)
Sequence (Q9NR96 26-1032): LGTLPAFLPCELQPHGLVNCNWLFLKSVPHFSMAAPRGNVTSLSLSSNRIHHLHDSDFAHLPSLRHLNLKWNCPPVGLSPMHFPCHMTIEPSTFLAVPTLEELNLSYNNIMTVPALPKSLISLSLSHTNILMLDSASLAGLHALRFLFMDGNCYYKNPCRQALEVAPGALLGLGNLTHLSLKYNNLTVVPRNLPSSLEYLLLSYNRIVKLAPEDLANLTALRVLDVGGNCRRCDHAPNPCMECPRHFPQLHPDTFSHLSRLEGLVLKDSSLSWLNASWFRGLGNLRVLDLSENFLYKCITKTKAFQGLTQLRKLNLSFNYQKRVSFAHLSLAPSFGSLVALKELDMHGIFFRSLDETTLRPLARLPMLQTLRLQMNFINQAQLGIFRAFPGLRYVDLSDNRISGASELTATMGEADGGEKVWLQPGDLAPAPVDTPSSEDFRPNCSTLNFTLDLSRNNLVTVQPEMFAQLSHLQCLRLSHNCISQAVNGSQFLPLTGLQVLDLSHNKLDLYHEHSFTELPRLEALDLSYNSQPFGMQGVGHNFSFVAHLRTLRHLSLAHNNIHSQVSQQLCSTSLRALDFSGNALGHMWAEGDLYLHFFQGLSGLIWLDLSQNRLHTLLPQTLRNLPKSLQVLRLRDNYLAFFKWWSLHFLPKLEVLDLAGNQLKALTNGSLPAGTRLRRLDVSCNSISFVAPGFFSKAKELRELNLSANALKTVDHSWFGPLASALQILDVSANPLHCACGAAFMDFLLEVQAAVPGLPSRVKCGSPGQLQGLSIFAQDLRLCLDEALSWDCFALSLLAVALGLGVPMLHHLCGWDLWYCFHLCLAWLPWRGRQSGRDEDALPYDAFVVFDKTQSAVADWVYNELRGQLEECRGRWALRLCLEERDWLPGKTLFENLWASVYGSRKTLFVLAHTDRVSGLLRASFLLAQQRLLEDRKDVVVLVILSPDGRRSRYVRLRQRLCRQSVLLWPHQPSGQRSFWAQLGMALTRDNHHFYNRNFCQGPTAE
Test: TLR9 inhibition reporter assay (HEK-Blue SEAP)
Conditions: HEK-Blue cells overexpressing human TLR9, stimulated with ODN2006 5 nM, 22 hour incubation
pIC50: −log10 of the molar value.
Assay Endpoint: pIC50

Example cases with answers are listed next.
>  <Compound>
Cc1cc(-c2[nH]c3ccc(OC4CCNCC4)cc3c2C(C)C)cn2ncnc12

>  <pIC50>
6.19

$$$$
>  <Compound>
Cc1cc(-c2[nH]c3ccc(OC4CCN(C5CCOCC5)CC4)cc3c2C(C)C)cn(C)c1=O

>  <pIC50>
5.09

$$$$
>  <Compound>
Cc1cc(-c2[nH]c3ccc(OCC4CCNCC4)cc3c2C(C)C)cn(C)c1=O

>  <pIC50>
6.10

$$$$
>  <Compound>
CNC(=O)CN1CCC(COc2ccc3[nH]c(-c4cc(C)c5ncnn5c4)c(C(C)C)c3c2)CC1

>  <pIC50>
5.17

$$$$
>  <Compound>
Cc1cc(-c2[nH]c3ccc(O[C@H]4CCCN(C)C4)cc3c2C(C)C)cn(C)c1=O

>  <pIC50>
4.33

$$$$

a: Cc1cc(-c2[nH]c3ccc(OCC4CCN(CC(=O)N(C)C)CC4)cc3c2C(C)C)cn(C)c1=O
b: Cc1cc(-c2[nH]c3ccc(OCC4CCN(C)CC4)cc3c2C(C)C)cn(C)c1=O
Query string: Parameter check: reported pIC50 is higher for which label, a or b ? Answer with the label corresponding to your selection.
Result string: b

A: Cc1cc(-c2[nH]c3ccc(OCC(=O)N4CC5(CCNCC5)C4)cc3c2C(C)C)ccn1
B: Cc1cc(-c2[nH]c3ccc(OCC(=O)N4CC5CNCC5C4)cc3c2C(C)C)ccn1 (stereo not shown)
Query string: Parameter check: reported pIC50 is higher for which label, A or B ? Answer with the label corresponding to your selection.
Result string: B
(B: 6.59, A: 6.20)

P: Cc1cc(-c2[nH]c3ccc(O[C@H]4CCCN(C(=O)CN(C)C)C4)cc3c2C(C)C)cn(C)c1=O
Q: Cc1cc(-c2[nH]c3ccc(OCC4CN(C(C)C)C4)cc3c2C(C)C)cn2ncnc12
R: Cc1cc(-c2[nH]c3ccc(OC4CCC(OC5CCNCC5)CC4)cc3c2C(C)C)ccn1 (stereo not shown) [Example 184]
Query string: Output the entries ranked by pIC50 from maximum down to minimum. # respond with the labels, arranged in the requested order
Result string: Q, R, P
(Q: 5.61, R: 5.28, P: 4.95)

1: Cc1cc(-c2[nH]c3ccc(OCC4CCN(CCS(C)(=O)=O)CC4)cc3c2C(C)C)cn2ncnc12
2: COc1ccc(-c2[nH]c3ccc(OCC(=O)N4CCNCC4)cc3c2C(C)C)cc1OC
Query string: Parameter check: reported pIC50 is higher for which label, 1 or 2 ? Answer with the label corresponding to your selection.
Result string: 2
(2: 5.58, 1: 5.02)

# credit: patent US12030878B2
